target: Bromodomain-containing protein 4 (Homo sapiens, UniProt O60885); assay: Inhibitory Activity Assay of BRD4 Small Molecule Compounds: AlphaScreen kit (Perkin Elmer) was used to detect effect of the compounds on binding of BRD4 bromodomain to acetylated histone H4 polypeptide. […] Each of fusion proteins containing (His)6tag can be recognized and bound by Ni2+. […] The donor microbeads were coated with streptavidin and can bind to biotinylated acetylated H4 polypeptide. The acceptor microbeads were coated with Ni2+ ions and can bind to the BD1 protein with (His)6tag. When the BD1 protein recognized the acetylated H4 polypeptide, the donor microbeads and the acceptor microbeads can be brought closer to a certain distance. Within this range, the donor microbeads can produce singlet oxygen after being irradiated with a 680 nm excitation light, and transfer the singlet oxygen to the acceptor microbeads. After a series of cascade chemical reactions, the acceptor microbeads will generate an emission wave of 520-620 nm, which in turn can be detected a signal. In this experiment, the test system was 20 μL, and the compound needs to be diluted in buffer 1 (20 mM HEPES pH 7.4, 150 mM NaCl, 1 mM dithiothreitol). First, a solution of 20 mM compound was consecutively diluted twice, each in 10 times, totally in 100 times to a concentration of 200 μM. […] The recombinant BD1 protein solution and the acetylated histone H4 polypeptide were diluted in the buffer 2 (20 mM HEPES pH 7.4, 150 mM NaCl, 0.01% Triton X-100, 0.1% bovine serum protein (w/v, Sigma), 1 mM dithiothreitol) to 100 nM and 100 nM respectively, to obtain a 8×BD1 protein working solution and a 4× acetylated histone H4 polypeptide working solution. The donor microbeads and the acceptor microbeads are diluted together in the buffer 2, both in the ratio of 1:100, to obtain a 2× microbead mixed working solution. The plate was added with 2.5 μL of BD1 protein working solution and incubated with the compound for 20 min at room temperature, and then added with 5 μL of acetylated histone H4 polypeptide working solution and incubated at room temperature for 5 min, and finally added with 10 μL of microbead mixed working solution and incubated at room temperature for 60 min. […] IC50 values of the compounds at different concentrations for inhibiting the binding of BD1 protein to acetylated H4 polypeptide were calculated by fitting using GraphPad Prism 5.0 software.
RESULT_TYPE: IC50 (nM)
Note: unit nM is implicit; provide only the numeric part.

Example cases with answers are listed next.
                            compound_string                           measured_target  result_type  display_unit  value_reported
0  Cc1cc(-c2cc(S(C)(=O)=O)ccc2Oc2ccc(F)cc2F)n2cc[nH]c(=O)c12  Bromodomain-containing protein 4 (Homo sapiens, UniProt O60885)         IC50            nM             132
1  Cc1cc(-c2ccccc2Oc2ccccc2)n2cc[nH]c(=O)c12  Bromodomain-containing protein 4 (Homo sapiens, UniProt O60885)         IC50            nM             905
2  Cc1cc(-c2cc(NS(C)(=O)=O)ccc2Oc2ccc(F)cc2F)n2cn[nH]c(=O)c12  Bromodomain-containing protein 4 (Homo sapiens, UniProt O60885)         IC50            nM            92.6
3  Cc1cc(-c2cc(CS(C)(=O)=O)ccc2Oc2ccc(F)cc2F)n2cn[nH]c(=O)c12  Bromodomain-containing protein 4 (Homo sapiens, UniProt O60885)         IC50            nM             4.5
4  Cc1cc(-c2cc(NS(C)(=O)=O)ccc2Oc2ccccc2)n2nc[nH]c(=O)c12  Bromodomain-containing protein 4 (Homo sapiens, UniProt O60885)         IC50            nM             434
5  Cc1cc(-c2cc(NS(C)(=O)=O)ccc2Oc2ccccc2)n2c1C(=O)NCC2  Bromodomain-containing protein 4 (Homo sapiens, UniProt O60885)         IC50            nM            76.9
6  Cc1cc(-c2ccccc2Oc2ccccc2)n2nc[nH]c(=O)c12  Bromodomain-containing protein 4 (Homo sapiens, UniProt O60885)         IC50            nM             910
7  CCS(=O)(=O)c1ccc(Oc2ccccc2C)c(-c2cc(C)c3c(=O)[nH]ccn23)c1  Bromodomain-containing protein 4 (Homo sapiens, UniProt O60885)         IC50            nM             131
8  Cc1cc(-c2cc(NS(C)(=O)=O)ccc2OCC2CC2)n2cn[nH]c(=O)c12  Bromodomain-containing protein 4 (Homo sapiens, UniProt O60885)         IC50            nM             471
9  Cc1cc(-c2cc(NS(C)(=O)=O)ccc2Oc2ccccc2)n2cn[nH]c(=O)c12  Bromodomain-containing protein 4 (Homo sapiens, UniProt O60885)         IC50            nM             114

Attention now shifts to the item below.
Could you share which IC50 value was measured for Cc1cc(-c2cc(S(C)(=O)=O)ccc2Oc2ccccc2)n2cc[nH]c(=O)c12 ?
134
